Test system: IGROV-1
EXPERIMENT: NCI tumour cell line growth inhibition, 48 h
Calls of active or inactive are those of the source. Rule as the data show it: active = GI50 up to about 1.1 µM and inactive = higher.
Answer each item with its documented GI50.

// below: answered molecules
# MOLECULE, EXPERIMENTAL SYSTEM, OBS VALUE
measured = [
    ("Cc1nn(C(=O)Cc2ccccc2)c2c1C(c1ccccc1[N+](=O)[O-])SC(=N)N2 (centres undefined)", "IGROV-1", "> 100 µM (inactive)"),
    ("CCCCCCNC(=O)c1cc(NCc2cc(OC)ccc2OC)ccc1O", "IGROV-1", "21.3 µM (inactive)"),
]

Consider the following items and state reported GI50 for each.
1. COc1cc(Nc2nc3cc(C(F)(F)F)ccc3nc2C(=O)O)cc(OC)c1OC
2. O=C1C(=Cc2ccco2)C(=O)C2CCCCC12 (centres undefined)

result:
1: 66.1 µM (inactive); 2: > 100 µM (inactive)
